study.system: T1, orthogonal hCD122 receptor (hoRb), hCD122 with H133D and Y134F (human, UniProt P14784 27-550); note: reference of the scale not given here
T1 sequence: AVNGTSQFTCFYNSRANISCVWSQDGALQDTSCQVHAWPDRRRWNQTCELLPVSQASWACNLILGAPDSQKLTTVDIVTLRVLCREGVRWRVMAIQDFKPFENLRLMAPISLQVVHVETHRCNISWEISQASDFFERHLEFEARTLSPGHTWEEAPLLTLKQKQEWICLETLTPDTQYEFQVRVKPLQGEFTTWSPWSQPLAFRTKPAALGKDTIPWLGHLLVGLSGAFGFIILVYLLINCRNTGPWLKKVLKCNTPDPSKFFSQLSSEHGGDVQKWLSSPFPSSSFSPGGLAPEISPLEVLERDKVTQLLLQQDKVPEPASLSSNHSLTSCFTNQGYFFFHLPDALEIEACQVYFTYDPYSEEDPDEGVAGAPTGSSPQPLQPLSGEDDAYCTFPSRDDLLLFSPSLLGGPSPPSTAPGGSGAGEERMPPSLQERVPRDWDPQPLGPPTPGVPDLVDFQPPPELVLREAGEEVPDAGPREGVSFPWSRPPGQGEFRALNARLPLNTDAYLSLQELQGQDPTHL
measurement.protocol: cell-based or functional assay
readout.type: Relative Proliferation Fold Change 3F8 1:2 (fold)

Worked cases, answers included:
TQVLKA (ligand) APTSSSTKKTQLQLTQLLVLLKAILNGINNYKNPKLTRMLTFKFYMPKKATELKHLQCLEEELKPLEEVLNLAQSKNFHLRPRDLISNINVIVLELKGSETTFMCEYADETATIVEFLNRWITFCQSIISTLT: 2.6
L14M, SQVLKA (ligand) APTSSSTKKTQLQMSQLLVLLKAILNGINNYKNPKLTRMLTFKFYMPKKATELKHLQCLEEELKPLEEVLNLAQSKNFHLRPRDLISNINVIVLELKGSETTFMCEYADETATIVEFLNRWITFCQSIISTLT: 40.9
T3D, SQVLKA (ligand) APDSSSTKKTQLQLSQLLVLLKAILNGINNYKNPKLTRMLTFKFYMPKKATELKHLQCLEEELKPLEEVLNLAQSKNFHLRPRDLISNINVIVLELKGSETTFMCEYADETATIVEFLNRWITFCQSIISTLT: 35.1
ΔG27, SQVLKA (ligand) APTSSSTKKTQLQLSQLLVLLKAILNINNYKNPKLTRMLTFKFYMPKKATELKHLQCLEEELKPLEEVLNLAQSKNFHLRPRDLISNINVIVLELKGSETTFMCEYADETATIVEFLNRWITFCQSIISTLT: 105
M39V, SQVLKA (ligand) APTSSSTKKTQLQLSQLLVLLKAILNGINNYKNPKLTRVLTFKFYMPKKATELKHLQCLEEELKPLEEVLNLAQSKNFHLRPRDLISNINVIVLELKGSETTFMCEYADETATIVEFLNRWITFCQSIISTLT: 110

[P] Q126K, SQVLKA (ligand) APTSSSTKKTQLQLSQLLVLLKAILNGINNYKNPKLTRMLTFKFYMPKKATELKHLQCLEEELKPLEEVLNLAQSKNFHLRPRDLISNINVIVLELKGSETTFMCEYADETATIVEFLNRWITFCKSIISTLT
[Q] R81I, SQVLKA (ligand) APTSSSTKKTQLQLSQLLVLLKAILNGINNYKNPKLTRMLTFKFYMPKKATELKHLQCLEEELKPLEEVLNLAQSKNFHLIPRDLISNINVIVLELKGSETTFMCEYADETATIVEFLNRWITFCQSIISTLT
### Prompt Hey, between P and Q which has a smaller measured Relative Proliferation Fold Change 3F8 1:2? Please identify the chosen entry by its label.
### Response P
(P: 9.18 fold, Q: 55.9 fold)
